Listing: IC50 of selected binders
testedSystem: T1, cynomolgus IgE (recombinant chimaeric D12 variable region / cynomolgus IgE constant region) (cynomolgus monkey (constant region))
T1 construct: also called cyno IgE; cynomolgus IgE (in house HEK-EBNA derived)
T1 sequence (heavy, as listed by the source limits assumed, chain 1 of 2): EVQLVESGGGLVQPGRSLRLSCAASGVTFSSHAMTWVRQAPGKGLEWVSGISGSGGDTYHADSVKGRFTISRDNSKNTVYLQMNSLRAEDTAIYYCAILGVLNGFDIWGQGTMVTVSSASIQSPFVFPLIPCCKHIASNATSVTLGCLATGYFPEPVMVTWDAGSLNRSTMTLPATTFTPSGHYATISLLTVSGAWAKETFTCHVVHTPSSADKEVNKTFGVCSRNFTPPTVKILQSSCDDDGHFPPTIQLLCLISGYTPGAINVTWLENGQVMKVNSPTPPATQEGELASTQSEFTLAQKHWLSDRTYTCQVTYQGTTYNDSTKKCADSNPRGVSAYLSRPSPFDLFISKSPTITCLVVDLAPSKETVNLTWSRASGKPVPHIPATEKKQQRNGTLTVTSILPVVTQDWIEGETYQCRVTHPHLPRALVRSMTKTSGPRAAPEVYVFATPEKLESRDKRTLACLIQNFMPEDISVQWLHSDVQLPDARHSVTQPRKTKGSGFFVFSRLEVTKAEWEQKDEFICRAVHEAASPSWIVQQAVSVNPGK
T1 sequence (light, as listed by the source limits assumed, chain 2 of 2): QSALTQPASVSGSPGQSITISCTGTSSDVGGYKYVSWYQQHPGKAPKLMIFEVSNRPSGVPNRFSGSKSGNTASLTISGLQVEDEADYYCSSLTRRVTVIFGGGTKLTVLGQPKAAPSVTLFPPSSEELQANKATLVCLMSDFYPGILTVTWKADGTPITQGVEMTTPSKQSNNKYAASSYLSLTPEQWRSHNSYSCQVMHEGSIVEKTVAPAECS
assayRemarks: HTRF receptor-ligand competition, scFv titrated; Eu-cryptate cynomolgus IgE binding to human FcεRI-Fc; geomean
# unit: nM | format: bare number

Sample records with IC50:
{"columns": ["binder", "unitLabel", "IC50"],
 "data": [
  ["Antibody 12 (scFv) (scFv, V domains shown, purified scFv) VH: EVQLLESGGGLVQPGGSLRLSCAASGFTFSSYAMSWVRQAPGKGLEWVSAISGSGGRTYYADSVKGRFTISRDNSKNTLYLQMNSLRAEDTAVYYCARHIAVAGTRGFDYWGRGTLVTVSS VL: SFMLSQPPSVSVSPGQTASITCSGDKLGDTYASWYRQRSGQSPVLVIYQDDKRPSGIPERFSGSNSGNTATLTISGTHTMDEADYYCLAWDTRTSGAVFGGGTKLTVL", "nM", 473],
  ["Antibody 15 (scFv) (scFv, V domains shown, purified scFv) VH: EVQLLESGGGLVQPGGSLRLSCAAPGFTFSSYAMSWVRQAPGKGLEWVSAISGGSGGRTYYADSVKGRFTISRDNSKNTLYLQMNSLRAEDTAVYYCARHIAVAGTRGFDYWGRGTLVTVSS VL: SYVLTQPPSVSVSPGQTASITCSGDKLGDTYASWYRQRSGQSPVLVIYQDDRRPSGIPERFSGSNSGNTATLTISGTHTMDEADYYCLAWDTRTSGAVFGGGTKLTVL", "nM", 135],
  ["Antibody 26 (scFv) (scFv, V domains shown, purified scFv) VH: EVQLLESGGGLVQPGGSLRLSCAASGLTFSGYAMSWVRQAPGKGLEWVSAISGSGGRTYYADSVKGRFTISRDNSKNMLYLQMNSLRAEDTAVYYCARHIAVAGTRGFDYWGRGTLVTVSS VL: SFVLTQPPSVSVSPGQTASITCSGDKLGDTYASWYRQRSGQSPVLVIYQDDKRPSGIPERFSGSNSGNTATLTIGGTHTMDEADYYCLAWDTRTSGAVFGGGTKLTVL", "nM", 359],
  ["Antibody 18 (scFv) (scFv, V domains shown, purified scFv) VH: EVQLLESGGGLVQPGGSLRLSCAASGFTFSSYAVSWVRQAPGKGLEWVSAISGGSGGRTYYADSVKGRFTISRDNSKNTLYLQMNSLRAEDTAVYYCARHIAVAGTRGFDYWGRGTLVTVSS VL: SYVLTQPPSVSVSPGQTASITCSGDKLGDTYASWYRQRSGQSPVLVIYQDDKRPSGIPERFSGSNSGDTATLTISGTRTMDEADYYCLAWDTRTSGAVFGGGTKLTVL", "nM", 129],
  ["Antibody 33 (scFv) (scFv, V domains shown, purified scFv) VH: EVQLLESGGGLVQPGGSLSLSCAAPGFTFSSYAMSWVRQAPGKGLEWVSAISGGSGGRTYYADSVKGRFTISKDNSKNTLYLQMNSLRAEDTAVYYCARHIAVAGTRGFDYWGRGTLVTVSS VL: SYVLTQPPSVSVSPGQTASITCSGDKLGDTYASWYRQRSGLSPALVIYQDDKRPSGIPERFSGSNSGNTATLTISGTHTMDEADYYCLAWDTRTSGAVFGGGTKLTVL", "nM", 533]
]}

Please turn your attention to the following entry.
INPUT: Quote IC50 reported for Antibody 17 (scFv) (scFv, V domains shown, purified scFv) VH: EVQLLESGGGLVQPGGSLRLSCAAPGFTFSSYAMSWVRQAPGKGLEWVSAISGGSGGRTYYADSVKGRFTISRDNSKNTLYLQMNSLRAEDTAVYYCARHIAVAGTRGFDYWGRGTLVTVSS VL: SYVLTQPPSVSVSPGQTASITCSGDKLGDTYASWYRQRSGQSPVLVIYQDDKRPSGIPERFSGSNSGDTATLTISGTHTMDEADYYCLAWDTRTSGAVFGGGTKLTVL please.
OUTPUT: 264
